- Tested on: glycogen synthase kinase-3 (GSK3A per assay name; protocol says GSK3B)
- Assay Info: GSK3 binders on small-molecule microarrays, primary screen, biochemical, small-molecule microarray, 635 nm fluorescence, GSK3A (AID 1103); also: the record names both GSK3A and GSK3B
- Measurement Parameters: small-molecule microarray binding, fluorescence 635 nm; higher = more signal
Returns one of 1.0 or 0.0; 1.0 when composite z-score is >= -0.05.

| Compound Structure | Assigned Label |
| --- | --- |
| O=C1[C@H]2[C@H]3[C@H](O)[C@H](O)CC(=NOC[C@@H](O)COCc4ccco4)[C@@H]3CC[C@H]2C(=O)N1c1ccc(F)cc1F | 1.0 |
| O=C1O[C@@H](c2ccccc2)[C@@H](c2ccccc2)N2[C@@H](c3ccc(OCCO)cc3)[C@]3(C(=O)Nc4ccc(C#CCCO)cc43)[C@@H](C(=O)N3CCCCCCC3)[C@H]12 | 1.0 |
| C[C@@H](c1ccccc1)N1C(=O)[C@H]2[C@H]3[C@H](O)[C@H](O)CC(=NNC(=O)OCc4ccccc4)[C@H]3CC[C@H]2C1=O | 0.0 |
| O=C1C[C@]2(c3ccc([N+](=O)[O-])cc3)C(=O)N(CCN3CCOCC3)c3cc(CO)ccc3[C@H]2N1CC12CC3CC(CC(C3)C1)C2 | 1.0 |
| O=C1[C@H]2[C@H]3[C@H](O)[C@H](O)CC(=NOC[C@@H](O)COCc4ccco4)[C@H]3CC[C@H]2C(=O)N1c1cccc(Oc2ccccc2)c1 | 0.0 |
